Target entity: YFP-AtGALS1 (β-1,4-galactan synthase 1) (Arabidopsis thaliana)
Procedure text: biochemical
Assay type: binding
Test settings: YFP-AtGALS1 microsomes from N. benthamiana, MES buffer 1% Triton X100, 5 mM Mn2+, 22 °C, n = 3; read-out: Kd (normalized binding curve, ± 68% confidence)
Overview of recorded Kd for various compounds

[
  {
    "Smiles notation": "O=c1ccn([C@@H]2O[C@H](COP(=O)(O)OP(=O)(O)O)[C@@H](O)[C@H]2O)c(=O)[nH]1",
    "Kd": "165 µM"
  },
  {
    "Smiles notation": "O=c1ccn([C@@H]2O[C@H](COP(=O)(O)OP(=O)(O)O[C@H]3OC[C@H](O)[C@H](O)[C@H]3O)[C@@H](O)[C@H]2O)c(=O)[nH]1",
    "Kd": "959 µM"
  }
]
